- assayedSystem: FXR (Homo sapiens, UniProt Q96RI1)
- Construct: expressed in transfected cells; host or cells: HEK293T
- Sequence (Q96RI1 222-486 limits assumed): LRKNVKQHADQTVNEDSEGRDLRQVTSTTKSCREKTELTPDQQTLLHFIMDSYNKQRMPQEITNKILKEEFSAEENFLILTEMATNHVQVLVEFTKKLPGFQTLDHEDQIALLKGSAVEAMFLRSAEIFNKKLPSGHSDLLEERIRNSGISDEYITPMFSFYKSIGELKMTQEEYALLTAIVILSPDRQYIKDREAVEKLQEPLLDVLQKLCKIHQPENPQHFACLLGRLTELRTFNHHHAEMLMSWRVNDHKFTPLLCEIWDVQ
- assayRemarks: FXR agonistic activity by GAL4-FXR-LBD reporter gene (Dual-Glo luciferase) detection in HEK293T cells
- Type: cell-based
- conditionsUsed: EC50 values (FXR agonistic activity), HEK293T reporter gene assay
pEC50: −log10 of the molar value.
valueKind: pEC50

[2H]C([2H])(O[C@H]1C[C@H]2CC[C@@H](C1)N2c1ccc(-c2noc(=O)[nH]2)c(F)c1)c1c(-c2c(Cl)cccc2Cl)noc1C1CC1 [Example 3] = > 8.30

Could you now consider this next compound?
API: value(readout=pEC50, system=FXR (Homo sapiens, UniProt Q96RI1)) for record [2H]C(O[C@H]1C[C@H]2CC[C@@H](C1)N2c1ccc(-c2noc(=O)[nH]2)c(F)c1)c1c(-c2c(Cl)cccc2Cl)noc1C1CC1 (some centres unmarked) [Example 4]
> 8.30

---

- assayedSystem: FXR (Homo sapiens, UniProt Q96RI1)
- Construct: expressed in transfected cells; host or cells: HEK293T
- assayRemarks: FXR agonistic activity by GAL4-FXR-LBD reporter gene (Dual-Glo luciferase) detection in HEK293T cells
- Assay type: cell-based
- conditionsUsed: HEK293T cells, pGAL4-FXR-LBD/pG5-Luc reporter, 24 h treatment; read-out: Cellular Level Activity EC50(nM) of FXR
Quick reference for EC50 among some compounds

Example entries begin here.
[2H]C([2H])(O[C@H]1C[C@H]2CC[C@@H](C1)N2c1ccc(-c2noc(=O)[nH]2)cc1)c1c(-c2c(Cl)cccc2Cl)noc1C1CC1 = < 5 nM
[2H]C([2H])(O[C@H]1C[C@H]2CC[C@@H](C1)N2c1ccc(-c2noc(=O)[nH]2)c(OC)c1)c1c(-c2c(Cl)cccc2Cl)noc1C1CC1 = 5 to 10 nM

Could you tell me which EC50 is on file for `[2H]C([2H])(O[C@H]1C[C@H]2CC[C@@H](C1)N2c1ccc(-c2noc(=O)[nH]2)c(C)c1)c1c(-c2c(Cl)cccc2Cl)noc1C1CC1` ?
5 to 10 nM

Look up EC50 for this compound: `[2H]C([2H])(O[C@H]1C[C@H]2CC[C@@H](C1)N2c1ccc(-c2noc(=O)[nH]2)c(F)c1)c1c(-c2ccccc2C(F)(F)F)noc1C1CC1`
5 to 10 nM

Which value of EC50 has been reported for `[2H]C([2H])(O[C@H]1C[C@H]2CC[C@@H](C1)N2c1ccc(-c2noc(=O)[nH]2)c(F)c1)c1c(-c2ccccc2OC(F)(F)F)noc1C1CC1` in the records?
5 to 10 nM

What value of EC50 has been reported for the following compound? `[2H]C([2H])(O[C@H]1C[C@H]2CC[C@@H](C1)N2c1ccc(-c2noc(=O)[nH]2)nc1)c1c(-c2c(Cl)cccc2Cl)noc1C1CC1`
< 5 nM

Fill in the blank: the reported EC50 of `[2H]C([2H])(O[C@H]1C[C@H]2CC[C@@H](C1)N2c1ccc(-c2noc(=O)[nH]2)c(C(F)(F)F)c1)c1c(-c2c(Cl)cccc2Cl)noc1C1CC1` is ____.
5 to 10 nM

FYI, the data here is from patent US20230295141A1.
